Listed next: entries and their corresponding Km.
Test system: F. hepatica cathepsin L1
Experiment: Enzyme kinetic studies, cathepsin L1
Format: biochemical, Fasciola hepatica
Details: 0.1M glycine pH 7.0, 37° C.
Method: The kinetic constants of F. hepatica cathepsins L1 and L2 enzymes were determined for 11 different substrates: Z-Phe-Arg-AMC, Bz-Phe-Val-Arg-AMC, Suc-Leu-Leu-Val-Tyr-AMC, H-Leu-Val-Tyr-AMC, Tos-Gly-Pro-Lys-AMC, Tos-Gly-Pro-Arg-AMC, Boc-Val-Pro-Arg-AMC, Z-Arg-Arg-AMC, Z-Arg-AMC, Suc-Ala-Phe-Lys-AMC and Boc-Val-Leu-Lys-AMC. One mg of fluorogenic substrate was dissolved in 100 μl of dimethyl formamide. […]
Starred links: 1 amine or outer side, 2 acyl side, 3 side chain; linkers in the order of their positions; H or OH if unused. Residues, ends and D or L forms follow the SMILES beside them. *: point of attachment. AMC = Cc1cc(=O)oc2cc(N*)ccc12; Suc = O=C(CCC(=O)[*:2])[*:1]; Tos = Cc1ccc(S(=O)(=O)*)cc1; Boc = CC(C)(C)OC(=O)*
Kindly format the answer as number then unit.

Challenge: Need Km of Cc1ccc(S(=O)(=O)NCC(=O)N2CCC[C@H]2C(=O)N[C@@H](CCCNC(=N)N)C(=O)Nc2ccc3c(C)cc(=O)oc3c2)cc1 [Tos-Gly-Pro-Arg-AMC] (Tos-Gly-Pro-Arg-{AMC}) , thanks.
Response given: 26 µM

Challenge: Give the measured Km of Cc1cc(=O)oc2cc(NC(=O)[C@H](CCCCN)NC(=O)[C@H](Cc3ccccc3)NC(=O)[C@H](C)NC(=O)CCC(=O)O)ccc12 [Suc-Ala-Phe-Lys-AMC] (Suc-Ala-Phe-Lys-{AMC}) .
Response given: 65.3 µM

Challenge: What value of Km has been reported for the following compound? Cc1cc(=O)oc2cc(NC(=O)[C@H](CCCN=C(N)N)NC(=O)[C@@H]3CCCN3C(=O)[C@@H](NC(=O)OC(C)(C)C)C(C)C)ccc12 [Boc-Val-Pro-Arg-AMC] (Boc-Val-Pro-Arg-{AMC})
Response given: 43.6 µM
